This listing pairs compounds with measured solubility (mole fraction).
condition.context: in water, 298 K
Note: the reply should be a number with no unit written.

// worked examples, solubility (mole fraction) included
[
  {
    "smiles.string": "Nc1ccc(S(=O)(=O)Nc2ccc(Cl)cc2)cc1",
    "solubility (mole fraction)": "1.19e-06"
  },
  {
    "smiles.string": "CN(C)S(=O)(=O)c1ccc(N)cc1",
    "solubility (mole fraction)": "3.21e-05"
  }
]

Assign solubility (mole fraction) to the following record: `Nc1ccc(S(=O)(=O)Nc2ccc(Cl)cc2)c(Cl)c1`
4.72e-07

====

condition.context: in water, 298 K
The compounds listed here are annotated with their solubility (mole fraction).

[
  {
    "smiles.string": "Cc1cc(N)ccc1S(=O)(=O)Nc1ccccc1[N+](=O)[O-]",
    "solubility (mole fraction)": "5.18e-07"
  },
  {
    "smiles.string": "CNS(=O)(=O)c1ccc(N)cc1",
    "solubility (mole fraction)": 0.00103
  },
  {
    "smiles.string": "Cc1cc(Cl)ccc1NS(=O)(=O)c1ccc(N)cc1",
    "solubility (mole fraction)": "7.72e-07"
  },
  {
    "smiles.string": "CCN(CC)S(=O)(=O)c1ccc(N)cc1",
    "solubility (mole fraction)": "4.27e-05"
  },
  {
    "smiles.string": "O=S(=O)(Nc1ncccc1Cl)c1ccccc1",
    "solubility (mole fraction)": "1.17e-05"
  },
  {
    "smiles.string": "Nc1ccc(S(=O)(=O)Nc2ccc(I)cc2)cc1",
    "solubility (mole fraction)": "5.44e-07"
  },
  {
    "smiles.string": "Nc1ccc(S(=O)(=O)Nc2cc(Cl)c(Cl)cc2Cl)cc1",
    "solubility (mole fraction)": "2.51e-07"
  },
  {
    "smiles.string": "Nc1ccc(S(=O)(=O)N(c2ccccc2)c2ccccc2)cc1",
    "solubility (mole fraction)": "4.84e-07"
  },
  {
    "smiles.string": "O=S(=O)(Nc1ccccc1)c1ccccc1",
    "solubility (mole fraction)": "8.49e-06"
  },
  {
    "smiles.string": "O=S(=O)(Nc1ccccc1Cl)c1ccccc1",
    "solubility (mole fraction)": "8.69e-07"
  }
]

Return solubility (mole fraction) (reported value) for this compound: `Cc1cc(N)ccc1S(=O)(=O)Nc1ccc(Cl)cc1`
6.71e-07

// fetch solubility (mole fraction) given entry `Cc1ccc(Cl)cc1NS(=O)(=O)c1ccc(N)cc1`
1.61e-06

Check the records and state solubility (mole fraction) for `Nc1ccc(S(=O)(=O)Nc2cc(Cl)ccc2Cl)cc1`
7.25e-07

====

Listing of recorded solubility (mole fraction) by entry.
condition.context: in water, 298 K
Output: the number by itself.

[
  {
    "smiles.string": "Nc1ccc(S(=O)(=O)Nc2ccc(Cl)c(Cl)c2)cc1",
    "measure": "solubility (mole fraction)",
    "recorded.result": "2.05e-07"
  },
  {
    "smiles.string": "Nc1ccc(S(=O)(=O)Nc2ccc([N+](=O)[O-])cc2Br)cc1",
    "measure": "solubility (mole fraction)",
    "recorded.result": "3.01e-07"
  }
]

State its solubility (mole fraction): `COc1ccc(NS(=O)(=O)c2ccc(N)cc2)cc1`
1.32e-06

Give a short answer stating reported solubility (mole fraction) for `Cc1ccc(NS(=O)(=O)c2ccc(N)cc2)cc1Cl` .
1.53e-07

Using known records, supply solubility (mole fraction) for `Nc1ccc(S(=O)(=O)Nc2cccc(Cl)c2Cl)cc1`
3.32e-07

// fetch solubility (mole fraction) given entry `CCOc1ccc(NS(=O)(=O)c2ccc([N+](=O)[O-])cc2)cc1`
3.41e-07

# return recorded solubility (mole fraction) for input `Nc1ccc(S(=O)(=O)Nc2ccc([N+](=O)[O-])cc2)cc1`
3.65e-06

Indicate its recorded solubility (mole fraction); the compound in question is `CCc1ccc(NS(=O)(=O)c2ccc(N)cc2)cc1`
5.09e-07

Give solubility (mole fraction) for the following compound: `O=S(=O)(Nc1ccc(Cl)cc1)c1ccccc1`
1.68e-06

====

condition.context: in n-octanol, 298 K
Label scheme for solubility (mole fraction): lower than 0.002 is not fulfilled, 0.002 and above is fulfilled.

[
  {
    "smiles.string": "Nc1ccc(S(=O)(=O)Nc2ccc(Cl)cc2)cc1",
    "discrete.label": "not fulfilled"
  },
  {
    "smiles.string": "Cc1ccc(NS(=O)(=O)c2ccc([N+](=O)[O-])cc2)nc1",
    "discrete.label": "not fulfilled"
  }
]

State whether the measured solubility (mole fraction) reaches 0.002, counting equality as reaching it, for `N#Cc1ccc(NS(=O)(=O)c2ccc(N)cc2)cc1`
not fulfilled

Is the recorded value of solubility (mole fraction) equal to or greater than 0.002 for this molecule? `O=S(=O)(Nc1cccnc1Cl)c1ccccc1`
not fulfilled

Reported solubility (mole fraction) reaches at least 0.002 for `Cc1cc(N)ccc1S(=O)(=O)Nc1ccccc1Cl` ?
not fulfilled

API: above_or_equal(metric=solubility (mole fraction), cutoff=0.002) for item `O=S(=O)(Nc1ccccc1)c1ccccc1`
fulfilled

Is reported solubility (mole fraction) greater than or equal to 0.002 here: `CN(C)S(=O)(=O)c1ccc(N)cc1`
not fulfilled

Hi team, for `Nc1ccc(S(=O)(=O)Nc2ccc(I)cc2)cc1` , is the recorded solubility (mole fraction) at or above 0.002?
not fulfilled

Hello, I need to know if `Nc1ccc(S(=O)(=O)Nc2cccc(Cl)c2Cl)cc1` has measured solubility (mole fraction) not below 0.002. Thanks!
not fulfilled

====

condition.context: in n-hexane, 298 K
Known solubility (mole fraction) of a selection of compounds

Sample records with solubility (mole fraction):
[
  {
    "smiles.string": "Cc1ccc(Cl)cc1NS(=O)(=O)c1ccc(N)cc1",
    "recorded.result": "2.94e-06"
  },
  {
    "smiles.string": "O=S(=O)(Nc1cccnc1Cl)c1ccccc1",
    "recorded.result": "2.63e-05"
  },
  {
    "smiles.string": "O=S(=O)(Nc1ccccc1Cl)c1ccccc1",
    "recorded.result": "7.73e-06"
  }
]

Field: next compound
Tell me its solubility (mole fraction) given `O=[N+]([O-])c1ccc(NS(=O)(=O)c2ccccc2)cc1` as the entry.
3.16e-06

====

solubility (mole fraction) by entry:
condition.context: in water, 298 K
Give your answer as a number; write no unit.

[
  {
    "smiles.string": "O=[N+]([O-])c1ccc(S(=O)(=O)Nc2nccs2)cc1",
    "solubility (mole fraction)": "4.23e-06"
  }
]

Indicate its recorded solubility (mole fraction); the compound in question is `Nc1ccc(S(=O)(=O)Nc2ccccc2Cl)c(Cl)c1`
1.19e-07

For the compound `Cc1cc(N)ccc1S(=O)(=O)Nc1ccccc1Cl` , report solubility (mole fraction).
1.57e-07

Identify measured solubility (mole fraction) corresponding to `Cc1ccc(NS(=O)(=O)c2ccc([N+](=O)[O-])cc2)nc1`
1.13e-06

Fill in solubility (mole fraction) for record `Cc1ccc(NS(=O)(=O)c2ccc(N)cc2)c(Cl)c1`
7.65e-07

Return solubility (mole fraction) for the following compound: `CCOC(=O)c1ccc(NS(=O)(=O)c2ccccc2)nc1`
1.24e-06

Provide measured solubility (mole fraction) value, entry: `O=[N+]([O-])c1ccc(NS(=O)(=O)c2ccccc2)cc1`
2.11e-06

Give the reported value of solubility (mole fraction) for this record: `N#Cc1ccc(NS(=O)(=O)c2ccc(N)cc2)cc1`
5.47e-06

Provide only the value of recorded solubility (mole fraction) for `O=[N+]([O-])c1ccccc1NS(=O)(=O)c1ccccc1`
1.78e-06

====

condition.context: in n-octanol, 298 K
measure: solubility (mole fraction)

[
  {
    "smiles.string": "Nc1ccc(S(=O)(=O)Nc2cc(Cl)c(Cl)cc2Cl)cc1",
    "measure": "solubility (mole fraction)",
    "recorded.result": 0.00109
  },
  {
    "smiles.string": "CCN(CC)S(=O)(=O)c1ccc(N)cc1",
    "measure": "solubility (mole fraction)",
    "recorded.result": 0.0108
  }
]

Read the entry `Nc1ccc(S(=O)(=O)Nc2ccccc2Cl)c(Cl)c1` and write its reported solubility (mole fraction).
7.4e-05

Give solubility (mole fraction) for the following compound: `Nc1ccc(S(=O)(=O)N(c2ccccc2)c2ccccc2)cc1`
0.000551
